NO release values, listed per item
# Protocol text: Induction of NO release per mol of compound in phosphate buffer at pH 7.4 at 100 uM after 4 hrs by Griess assay
# Type: physicochemical
# Test context: pH 7.4, 4 h
Measurement name: NO release (mol/mol)

| Compound | Numeric readout |
| --- | --- |
| COc1ccc(C2=NN(C(=O)CNc3ccc(/C(C)=N/O)cc3)C(c3ccco3)C2)cc1OC (stereo not drawn) | 0.167 |
| COc1ccc(C2=NN(C(=O)CO[N+](=O)[O-])C(c3c(Cl)cccc3Cl)C2)cc1 (stereo not drawn) | 0.451 |
| COc1ccc(C2CC(c3ccc(OC)c(OC)c3)=NN2C(=O)CO[N+](=O)[O-])c(OC)c1 (stereo not drawn) | 0.523 |
